Each entry below lists one item and its recorded Kd value.
Molecular target: ROCK2 (Homo sapiens, UniProt O75116)
Construct: T7 phage fusion (kinase-tagged phage) or DNA tag for qPCR detection
Sequence (O75116 whole entry, the tested form may be a part): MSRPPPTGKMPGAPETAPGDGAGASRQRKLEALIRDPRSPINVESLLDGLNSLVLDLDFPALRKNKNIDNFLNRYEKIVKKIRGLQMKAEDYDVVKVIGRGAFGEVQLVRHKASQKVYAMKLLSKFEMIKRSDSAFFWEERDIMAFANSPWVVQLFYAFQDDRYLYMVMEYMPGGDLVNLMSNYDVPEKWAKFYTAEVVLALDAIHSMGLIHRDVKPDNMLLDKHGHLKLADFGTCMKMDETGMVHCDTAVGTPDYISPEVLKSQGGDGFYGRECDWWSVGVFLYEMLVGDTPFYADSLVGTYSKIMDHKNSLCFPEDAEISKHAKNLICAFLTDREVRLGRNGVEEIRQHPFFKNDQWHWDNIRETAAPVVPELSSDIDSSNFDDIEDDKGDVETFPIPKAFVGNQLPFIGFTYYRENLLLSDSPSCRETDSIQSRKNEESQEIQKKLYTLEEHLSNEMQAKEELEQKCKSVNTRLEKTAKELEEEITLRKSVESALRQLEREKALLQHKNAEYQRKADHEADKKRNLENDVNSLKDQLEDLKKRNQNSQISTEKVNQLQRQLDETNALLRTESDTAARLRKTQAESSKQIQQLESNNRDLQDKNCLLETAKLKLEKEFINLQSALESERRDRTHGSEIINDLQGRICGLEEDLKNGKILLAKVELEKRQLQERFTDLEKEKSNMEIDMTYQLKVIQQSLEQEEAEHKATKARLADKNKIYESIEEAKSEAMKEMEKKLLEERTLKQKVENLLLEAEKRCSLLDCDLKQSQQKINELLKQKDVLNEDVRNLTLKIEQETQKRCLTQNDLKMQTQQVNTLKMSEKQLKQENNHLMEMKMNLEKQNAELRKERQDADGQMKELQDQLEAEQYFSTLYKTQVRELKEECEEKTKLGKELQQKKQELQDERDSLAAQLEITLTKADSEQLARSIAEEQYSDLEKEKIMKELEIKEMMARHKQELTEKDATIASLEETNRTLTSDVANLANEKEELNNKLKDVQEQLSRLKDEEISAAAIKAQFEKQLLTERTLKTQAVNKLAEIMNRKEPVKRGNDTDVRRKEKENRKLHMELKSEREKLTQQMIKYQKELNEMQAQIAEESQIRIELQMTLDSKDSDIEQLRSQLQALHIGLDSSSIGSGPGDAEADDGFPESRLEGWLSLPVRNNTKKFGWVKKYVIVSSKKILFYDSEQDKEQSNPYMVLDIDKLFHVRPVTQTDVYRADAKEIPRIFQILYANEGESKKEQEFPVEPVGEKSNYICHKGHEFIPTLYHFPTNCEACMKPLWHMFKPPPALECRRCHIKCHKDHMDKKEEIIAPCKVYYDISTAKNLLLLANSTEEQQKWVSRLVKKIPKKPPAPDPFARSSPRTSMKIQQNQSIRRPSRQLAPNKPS
Assay: ROCK2 kinase binding affinity, DiscoverX KINOMEscan KdELECT
Settings: KINOMEscan KdELECT, 11-point 3-fold dilution; read-out: Kd (μM) ROCK2
Measured metric: Kd

Compound: Fc1cnc(CNc2nccc(-c3nccc(C#Cc4ccc5[nH]ncc5c4)n3)n2)c(F)c1
Tested system: ROCK2 (Homo sapiens, UniProt O75116)
Value observed: < 0.01 µM

Compound: Fc1cnccc1CNc1nccc(-c2nccc(C#Cc3ccc4[nH]ncc4c3)n2)n1
Tested system: ROCK2 (Homo sapiens, UniProt O75116)
Value observed: 0.01 to 0.099 µM

Compound: C(#Cc1ccnc(-c2ccnc(NCC3CCCN3)n2)n1)c1ccc2[nH]ncc2c1 (centres unmarked)
Tested system: ROCK2 (Homo sapiens, UniProt O75116)
Value observed: 0.01 to 0.099 µM

Compound: Fc1cccc(F)c1CNc1nccc(-c2nccc(C#Cc3ccc4[nH]ncc4c3)n2)n1
Tested system: ROCK2 (Homo sapiens, UniProt O75116)
Value observed: 0.1 to 0.99 µM

Compound: O[C@H]1CC[C@@H](Nc2nccc(-c3nccc(C#Cc4ccc5[nH]ncc5c4)n3)n2)C1
Tested system: ROCK2 (Homo sapiens, UniProt O75116)
Value observed: < 0.01 µM

Compound: COC(=O)[C@H]1CC[C@H](Nc2nccc(-c3nccc(C#Cc4ccc5[nH]ncc5c4)n3)n2)CC1
Tested system: ROCK2 (Homo sapiens, UniProt O75116)
Value observed: < 0.01 µM

Compound: CN(C)C(=O)CNc1nccc(-c2nccc(C#Cc3ccc4[nH]nc(F)c4c3)n2)n1
Tested system: ROCK2 (Homo sapiens, UniProt O75116)
Value observed: 0.01 to 0.099 µM

Compound: C(#Cc1ccnc(-c2ccnc(NCC3CCCO3)n2)n1)c1ccc2[nH]ncc2c1 (centres unmarked)
Tested system: ROCK2 (Homo sapiens, UniProt O75116)
Value observed: < 0.01 µM

###

Molecular target: ROCK2 (Homo sapiens, UniProt O75116)
Construct: T7 phage fusion (kinase-tagged phage) or DNA tag for qPCR detection
Assay: ROCK2 kinase binding affinity, DiscoverX KINOMEscan KdELECT
Settings: KINOMEscan KdELECT, 11-point 3-fold dilution; read-out: Kd (μM) ROCK2
Measured Kd accompanies every entry in the list below.

Input smiles: CN(Cc1ccc(F)cn1)c1nccc(-c2nccc(C#Cc3ccc4[nH]ncc4c3)n2)n1
Kd: 0.1 to 0.99 µM

Input smiles: O=C(CNc1nccc(-c2nccc(C#Cc3ccc4[nH]ncc4c3)n2)n1)NC12CCC(CC1)C2
Kd: < 0.01 µM

Input smiles: COC(C)(C)CNc1nccc(-c2nccc(C#Cc3ccc4[nH]ncc4c3)n2)n1
Kd: 0.01 to 0.099 µM

Input smiles: C(#Cc1ccnc(-c2ccnc(NCc3ncccn3)n2)n1)c1ccc2[nH]ncc2c1
Kd: 0.01 to 0.099 µM

Input smiles: O[C@H]1CC[C@H](Nc2nccc(-c3nccc(C#Cc4ccc5[nH]ncc5c4)n3)n2)C1
Kd: < 0.01 µM

Input smiles: CN(C)CCNc1nccc(-c2nccc(C#Cc3ccc4[nH]ncc4c3)n2)n1
Kd: 0.1 to 0.99 µM

Input smiles: Cc1ccc(CNc2nccc(-c3nccc(C#Cc4ccc5[nH]ncc5c4)n3)n2)nc1
Kd: < 0.01 µM

Input smiles: CN1CCN(C(=O)CNc2nccc(-c3nccc(C#Cc4ccc5[nH]ncc5c4)n3)n2)CC1
Kd: 0.01 to 0.099 µM

###

Molecular target: ROCK2 (Homo sapiens)
Construct: T7 phage fusion (kinase-tagged phage) or DNA tag for qPCR detection
Assay: ROCK2 kinase binding affinity, DiscoverX KINOMEscan KdELECT
Details: KINOMEscan KdELECT, 11-point 3-fold dilution; read-out: Kd (μM) ROCK2
The following molecules are shown together with reported Kd values.
Measured metric: Kd

Molecule: FC(F)(F)c1ccc(CNc2nccc(-c3nccc(C#Cc4ccc5[nH]ncc5c4)n3)n2)nc1 [Ex. 48]
Tested system: ROCK2 (Homo sapiens)
Value observed: < 0.01 µM

Molecule: Fc1ccc(CNc2nccc(-c3nccc(C#Cc4cc(F)c5[nH]ncc5c4)n3)n2)nc1 [Ex. 36]
Tested system: ROCK2 (Homo sapiens)
Value observed: 0.01 to 0.099 µM

Molecule: FC1(F)Oc2ccc(CNc3nccc(-c4nccc(C#Cc5ccc6[nH]ncc6c5)n4)n3)cc2O1 [Ex. 13]
Tested system: ROCK2 (Homo sapiens)
Value observed: 0.1 to 0.99 µM

Molecule: Fc1ccc(CNc2nccc(-c3nccc(C#Cc4ccc5[nH]nc(F)c5c4)n3)n2)nc1 [Ex. 45]
Tested system: ROCK2 (Homo sapiens)
Value observed: 0.01 to 0.099 µM

###

Catalogue of compounds with associated Kd
Biological target: ROCK2 (Homo sapiens, UniProt O75116)
Construct: T7 phage fusion (kinase-tagged phage) or DNA tag for qPCR detection
Assay: ROCK2 kinase binding affinity, DiscoverX KINOMEscan KdELECT
Settings: KINOMEscan KdELECT, 11-point 3-fold dilution; read-out: Kd (μM) ROCK2
Experimental: 1. ROCK1 and ROCK2 kinase assays: The ROCK1 and ROCK2 kinase binding affinities of compounds in this disclosure were determined by DiscoverX's KINOMEscan™ KdELECT technology (https://www.discoverx.com/kinomescan-elect-kinase-screening-and-profiling-services): Kinase-tagged T7 phage strains were prepared in an E. coli host derived from the BL21 strain. […] Kds were determined using an 11-point 3-fold compound dilution series with three DMSO control points. […]
Measured metric: Kd

Compound: O=C(CNc1nccc(-c2nccc(C#Cc3ccc4[nH]ncc4c3)n2)n1)N1CC[C@H](O)C1 [Ex. 1]
Tested system: ROCK2 (Homo sapiens, UniProt O75116)
Measured metric: Kd
Value observed: < 0.01 µM
//
Compound: C(#Cc1ccnc(-c2ccnc(NCC3CCCCO3)n2)n1)c1ccc2[nH]ncc2c1 (centres unmarked) [Ex. 76]
Tested system: ROCK2 (Homo sapiens, UniProt O75116)
Measured metric: Kd
Value observed: < 0.01 µM
//
Compound: O=S1(=O)CCC(CNc2nccc(-c3nccc(C#Cc4ccc5[nH]ncc5c4)n3)n2)CC1 [Ex. 85]
Tested system: ROCK2 (Homo sapiens, UniProt O75116)
Measured metric: Kd
Value observed: < 0.01 µM
//
Compound: Fc1ccc(CCNc2nccc(-c3nccc(C#Cc4ccc5[nH]ncc5c4)n3)n2)nc1 [Ex. 39]
Tested system: ROCK2 (Homo sapiens, UniProt O75116)
Measured metric: Kd
Value observed: 0.01 to 0.099 µM
//
Compound: Cc1cnc(F)c(CNc2nccc(-c3nccc(C#Cc4ccc5[nH]ncc5c4)n3)n2)c1 [Ex. 72]
Tested system: ROCK2 (Homo sapiens, UniProt O75116)
Measured metric: Kd
Value observed: 10 to 100 µM
//
Compound: COc1ccccc1CNc1nccc(-c2nccc(C#Cc3ccc4[nH]ncc4c3)n2)n1 [Ex. 18]
Tested system: ROCK2 (Homo sapiens, UniProt O75116)
Measured metric: Kd
Value observed: 0.01 to 0.099 µM
//
Compound: C(#Cc1ccnc(-c2ccnc(NC[C@H]3CCOC3)n2)n1)c1ccc2[nH]ncc2c1 [Ex. 69]
Tested system: ROCK2 (Homo sapiens, UniProt O75116)
Measured metric: Kd
Value observed: < 0.01 µM
//
Compound: CN(C)C(=O)CNc1nccc(-c2nccc(C#Cc3ccc4[nH]ncc4c3)n2)n1 [Ex. 19]
Tested system: ROCK2 (Homo sapiens, UniProt O75116)
Measured metric: Kd
Value observed: 0.01 to 0.099 µM

###

Assay: Pharmacokinetic profile, compound levels in the portal vein
Format: in vivo, C57BL/6 Mouse
Conditions: male, C57BL/6, mouse, portal vein serum; po 10 mg/kg in 0.5% CMC suspension, mesylate salt, serum
Protocol: For assessing compound levels in the portal vein, 7-8 week old male C57BL/6 animals were dosed orally with 10 mg/kg compound of Ex. 65 (mesylate salt) in 0.5% carboxymethyl cellulose (CMC) in water. Serum samples were collected from the portal vein at 15, 30, 60 120 and 240 minutes after dosing. Samples were analyzed for compound by LC-MS.
Measured metric: AUC (ng·h/mL)

Input smiles: O[C@H]1CC[C@@H](Nc2nccc(-c3nccc(C#Cc4ccc5[nH]ncc5c4)n3)n2)CC1
Measured metric: AUC
Value observed: 697

###

Molecular target: ROCK2 (Homo sapiens, UniProt O75116)
Construct: T7 phage fusion (kinase-tagged phage) or DNA tag for qPCR detection
Assay: ROCK2 kinase binding affinity, DiscoverX KINOMEscan KdELECT
Conditions: KINOMEscan KdELECT, 11-point 3-fold dilution; read-out: Kd (μM) ROCK2
Measured metric: Kd

Molecule: Fc1cc(C#Cc2ccnc(-c3ccnc(NCC4CCCO4)n3)n2)cc2cn[nH]c12 (stereo not drawn)
Tested system: ROCK2 (Homo sapiens, UniProt O75116)
Measured metric: Kd
Value observed: < 0.01 µM
--
Molecule: COc1ccnc(CNc2nccc(-c3nccc(C#Cc4ccc5[nH]ncc5c4)n3)n2)c1
Tested system: ROCK2 (Homo sapiens, UniProt O75116)
Measured metric: Kd
Value observed: 0.01 to 0.099 µM
--
Molecule: Fc1ccccc1CNc1nccc(-c2nccc(C#Cc3ccc4[nH]ncc4c3)n2)n1
Tested system: ROCK2 (Homo sapiens, UniProt O75116)
Measured metric: Kd
Value observed: 0.01 to 0.099 µM
--
Molecule: Cc1ccnc(F)c1CNc1nccc(-c2nccc(C#Cc3ccc4[nH]ncc4c3)n2)n1
Tested system: ROCK2 (Homo sapiens, UniProt O75116)
Measured metric: Kd
Value observed: 0.01 to 0.099 µM
--
Molecule: O[C@H]1CC[C@@H](Nc2nccc(-c3nccc(C#Cc4ccn5cnnc5c4)n3)n2)CC1
Tested system: ROCK2 (Homo sapiens, UniProt O75116)
Measured metric: Kd
Value observed: 10 to 100 µM
--
Molecule: Clc1ccc(CNc2nccc(-c3nccc(C#Cc4ccc5[nH]ncc5c4)n3)n2)nc1
Tested system: ROCK2 (Homo sapiens, UniProt O75116)
Measured metric: Kd
Value observed: < 0.01 µM
--
Molecule: O=C(O)[C@H]1CC[C@H](Nc2nccc(-c3nccc(C#Cc4ccc5[nH]ncc5c4)n3)n2)CC1
Tested system: ROCK2 (Homo sapiens, UniProt O75116)
Measured metric: Kd
Value observed: 0.1 to 0.99 µM
--
Molecule: CC(Nc1nccc(-c2nccc(C#Cc3ccc4[nH]ncc4c3)n2)n1)C1CCCO1 (stereo not drawn)
Tested system: ROCK2 (Homo sapiens, UniProt O75116)
Measured metric: Kd
Value observed: 0.01 to 0.099 µM
--
Molecule: CC1(O)CN(C(=O)CNc2nccc(-c3nccc(C#Cc4ccc5[nH]ncc5c4)n3)n2)C1
Tested system: ROCK2 (Homo sapiens, UniProt O75116)
Measured metric: Kd
Value observed: 0.01 to 0.099 µM
--
Molecule: C(#Cc1ccnc(-c2ccnc(N[C@H]3CCOC3)n2)n1)c1ccc2[nH]ncc2c1
Tested system: ROCK2 (Homo sapiens, UniProt O75116)
Measured metric: Kd
Value observed: < 0.01 µM
--
Molecule: O=S1(=O)CC[C@@H](Nc2nccc(-c3nccc(C#Cc4ccc5[nH]ncc5c4)n3)n2)C1
Tested system: ROCK2 (Homo sapiens, UniProt O75116)
Measured metric: Kd
Value observed: 0.01 to 0.099 µM
--
Molecule: C(#Cc1ccnc(-c2ccnc(NC[C@@H]3CCCO3)n2)n1)c1ccc2[nH]ncc2c1
Tested system: ROCK2 (Homo sapiens, UniProt O75116)
Measured metric: Kd
Value observed: < 0.01 µM
